# MEASURED TARGET: Purine nucleoside phosphorylase (Homo sapiens)
# Sequence (P00491 whole entry): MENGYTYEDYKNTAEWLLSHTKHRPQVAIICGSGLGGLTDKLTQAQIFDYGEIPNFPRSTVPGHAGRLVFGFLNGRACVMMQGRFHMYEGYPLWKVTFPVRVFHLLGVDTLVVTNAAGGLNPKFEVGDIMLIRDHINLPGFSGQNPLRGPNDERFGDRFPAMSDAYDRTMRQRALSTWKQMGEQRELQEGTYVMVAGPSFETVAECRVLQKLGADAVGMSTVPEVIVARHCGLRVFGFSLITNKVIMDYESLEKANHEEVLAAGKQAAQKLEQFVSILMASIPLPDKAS
# PROTOCOL: In vitro inhibition of purine nucleoside phosphorylase isolated from human erythrocytes.
Catalogue of Ki readings, one per entry.
Note: unit nM is implicit; provide only the numeric part.

Guide cases for Ki, answers given:
INSERT INTO measurements (chemical_smiles, meas_value) VALUES
  ('Nc1nc2c(nnn2COCCCCP(=O)(O)O)c(=O)[nH]1', 48),
  ('Nc1nc2c(cnn2COCCCCCP(=O)(O)O)c(=O)[nH]1', 230),
  ('Nc1nc2c(ncn2CCCCCCC(F)(F)P(=O)(O)O)c(=O)[nH]1', 57),
  ('Nc1nc2c(cnn2CCCCCCC(F)(F)P(=O)(O)O)c(=O)[nH]1', 49);

Prompt: Find the recorded Ki belonging to "Nc1nc(O)c2nnn(CCCCCP(=O)(O)O)c2n1" and report it.
Completion: 65

Prompt: # Ki lookup, item "Nc1nc(O)c2nn(COCCCCCP(=O)(O)O)nc2n1"
Completion: 550

Provenance of the data: ChEMBL document CHEMBL1129497
